These measurements were taken from PubChem BioAssay.

Test system: Chordin-like protein 2 (CHRDL2)
experimental-details: CHRDL2 small-molecule binders, primary screen, biochemical, small-molecule microarray, 635 nm fluorescence (AID 1126);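 note: printed compound slides probed with Chrdl2 protein at 4 µg/mL for 1 h at 4 C; score merges 667 nm emission intensity with signal to noise over three replicate slides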
measurement-context: small-molecule microarray binding, fluorescence 635 nm; higher = more signal
composite z-score reference
Please give the numeric answer without any surrounding text.

Below are worked cases with known answers.
molecule	property-label	numeric-value
O=C(OCCF)C1=CCC(c2cccc(Cl)c2)O1 (centres undefined)	composite z-score	-0.165
COc1ccc(CCN2C(=O)[C@@]3(Cc4ccccc42)c2ccccc2C(=O)N(Cc2ccccc2Cl)[C@H]3c2ccc(CO)cc2)cc1	composite z-score	-1.06
O=c1cccc(CCc2ccccc2)o1	composite z-score	0.146
CC(C)(C)N1CC=CC23O[C@@H]4C=CCOC(=O)[C@@H]4[C@H]2C(=O)N(CCCCCO)[C@@H]3C1=O (some centres undefined)	composite z-score	-0.612
CC(C)C(O)C1C=CC2C(=O)N(c3ccccc3)C(=O)C2N1Nc1ccc(C#N)cc1 (centres undefined)	composite z-score	-0.387

Task: Report composite z-score on Chordin-like protein 2 (CHRDL2) for this entry: `[N-]=[N+]=NCc1ccccc1C[C@]1(C(=O)O)N=C(c2ccc(OCCCO)cc2)O[C@H]1c1ccccc1CN=[N+]=[N-]`
Output: -0.69

Task: Tell me its composite z-score on Chordin-like protein 2 (CHRDL2): O=C1OCCC/C=C\[C@H]2OC34C=CCN(Cn5nnc6ccccc65)C(=O)[C@H]3N(CCCCCO)C(=O)[C@@H]4C12 (some centres undefined)
Output: -0.977

Task: Please report the measured composite z-score for `CCCNC(=O)[C@@H]1c2ccccc2C(=O)N(Cc2ccccc2)[C@H]1c1ccc(CO)cc1` tested on Chordin-like protein 2 (CHRDL2).
Output: -0.592

Task: Specify composite z-score for `CCCN1C(=O)[C@]2(COC(c3ccc(OCCCO)cc3)=N2)Cc2ccccc21` , system Chordin-like protein 2 (CHRDL2).
Output: -0.125

----------
tested-system: Homeobox protein Hox-A13 (Mus musculus) (UniProt Q62424)
Sequence (Q62424 whole entry, looked up): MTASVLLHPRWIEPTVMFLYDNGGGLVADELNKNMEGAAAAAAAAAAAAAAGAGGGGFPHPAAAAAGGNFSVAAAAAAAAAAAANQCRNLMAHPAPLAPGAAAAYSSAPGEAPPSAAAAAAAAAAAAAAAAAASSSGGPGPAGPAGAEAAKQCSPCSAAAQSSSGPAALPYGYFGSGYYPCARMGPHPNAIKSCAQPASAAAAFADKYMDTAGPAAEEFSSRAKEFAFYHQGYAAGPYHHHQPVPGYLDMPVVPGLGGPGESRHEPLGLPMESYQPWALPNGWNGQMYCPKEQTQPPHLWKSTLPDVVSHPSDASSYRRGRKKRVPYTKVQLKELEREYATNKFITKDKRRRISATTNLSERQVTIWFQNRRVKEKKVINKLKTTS
experimental-details: inhibitors of HoxA13-DNA binding, primary screen, biochemical, fluorescence polarization, labeled oligonucleotide (AID 1185)
measurement-context: 15 min, higher = more signal, called active from +8 up or from −8 down
property-label: z-score
I'd appreciate a reply containing only the number, no unit.

compound	numeric-value
CC(C)Cc1ccc(CN2CC[C@@H](NS(=O)(=O)c3ccccc3)C2)cc1	-4.79
CC(C)c1ccc(NN2C(C(O)c3ccc(N(C)C)cc3)C=CC3C(=O)N(c4ccccc4)C(=O)C32)cc1 (stereo unspecified)	-2.2
O=C1O[C@@H](c2ccccc2)[C@@H](c2ccccc2)N2[C@@H](c3ccc(OCCO)cc3)[C@]3(C(=O)Nc4ccc(C#CC5=CCCCC5)cc43)[C@@H](C(=O)O)[C@H]12	-3.99
CCOC(=O)C[C@H]1[C@H](OC(=O)c2ccc(-c3ccccc3)cc2)[C@@H](NC(=O)Cc2ccc(OC)cc2)c2cc(OCCCO)ccc2N1C(=O)c1ccc2ccccc2n1	-2.51
NC(=O)NCC#Cc1ccc2c(c1)[C@]1(C(=O)N2)[C@H](C(=O)NC[C@H](O)c2ccccc2)[C@H]2C(=O)O[C@H](c3ccccc3)[C@H](c3ccccc3)N2[C@@H]1c1ccc(O)cc1	-4.24
Cc1ccc(S[C@]2(C(=O)NC3CC3)CC(=O)N(C3CCCCC3)[C@@H]2c2ccc(CO)cc2I)cc1	-4.11

Task: Fill in z-score for record O=C1OCCC/C=C\[C@H]2OC34C=CCN(Cn5nnc6ccccc65)C(=O)[C@H]3N(CCCCCO)C(=O)[C@@H]4C12 (stereo partly specified)
Output: -4.39

Task: # return recorded z-score for entry `C=CC[C@@]1(C(=O)O)N=C(c2ccc(OCCCO)cc2)O[C@@H]1c1ccccc1N=[N+]=[N-]`
Output: -6.19

Task: Provide z-score value for the following compound: `COCCOC(=O)N1C(=O)[C@@]2(c3cc(C#CCCO)ccc31)[C@H](c1ccc(O)cc1)N1[C@H](c3ccccc3)[C@H](c3ccccc3)OC(=O)[C@H]1[C@@H]2C(N)=O`
Output: -5.33

Task: Look up and report measured z-score for this entry: `CC(C)CNC(=O)[C@@]1(c2ccc([N+](=O)[O-])cc2)CC(=O)N(CC23CC4CC(CC(C4)C2)C3)[C@@H]1c1ccc(CO)cc1`
Output: -4.17

Task: Provide only the value of recorded z-score for CCCCCN1CC=CC23O[C@@H]4/C=C\CCC(C)OC(=O)C4[C@H]2C(=O)N(CCCCCO)[C@@H]3C1=O (stereo partly specified)
Output: -4.05

Task: Quick one: give measured z-score for `CC(C)NC(=O)[C@@H]1c2ccccc2C(=O)N(Cc2ccccc2Cl)[C@H]1c1ccc(CO)cc1`
Output: -3.24

Task: Please give the documented z-score of `O=C1O[C@H](c2ccccc2)[C@H](c2ccccc2)N2[C@H]1[C@@H](C(=O)Nc1nc3ccccc3s1)[C@]1(C(=O)Nc3ccccc31)[C@H]2c1ccc(O)cc1`
Output: -0.0851

Task: Quickly give me recorded z-score for CC(C)=CCCC(C)=CC(O)C1C=CC2C(=O)N(c3ccccc3)C(=O)C2N1Nc1ccccc1 (stereo unspecified)
Output: -3.67

Task: Provide one value: measured z-score of O=C1C2C=CC(C(O)c3ccc(B(O)O)cc3)N(Nc3ccccc3)C2C(=O)N1c1ccccc1 (stereo unspecified)
Output: -3.99

Task: Supply measured z-score of CC(C)(C)N1CC=CC23O[C@@H]4C=CCOC(=O)[C@@H]4[C@H]2C(=O)N(CCCCCO)[C@@H]3C1=O (stereo partly specified) in your reply.
Output: -4.43

Task: Note z-score for the compound shown: `COC(=O)[C@@]1(Cc2ccccc2)N=C(c2ccc(OCCCO)cc2)O[C@H]1c1ccccc1N=[N+]=[N-]`
Output: 0.459

Task: Report measured z-score; entry is COC(=O)c1ccc(C(O)C2C=CC3C(=O)N(c4ccccc4)C(=O)C3N2Nc2ccc(C#N)cc2)o1 (stereo unspecified)
Output: -3.24

----------
Listing of recorded composite z-score by entry.
Tested on: glycogen synthase kinase-3 (GSK3A per assay name; protocol says GSK3B)
experimental-details: GSK3 binders on small-molecule microarrays, primary screen, biochemical, small-molecule microarray, 635 nm fluorescence, GSK3A (AID 1103); note: the record names both GSK3A and GSK3B
measurement-context: small-molecule microarray binding, fluorescence 635 nm; higher = more signal

Study these solved cases before continuing.
compound	tested-system	composite z-score
COCCOC(=O)N1C(=O)[C@@]2(c3cc(C#CC4=CCCCC4)ccc31)[C@H](C(=O)N1CCc3cc(OC)c(OC)cc3C1)[C@H]1C(=O)O[C@H](c3ccccc3)[C@H](c3ccccc3)N1[C@@H]2c1ccccc1OCCO	glycogen synthase kinase-3 (GSK3A per assay name; protocol says GSK3B)	1.2
COc1ccc(CCN2C(=O)[C@@]3(Cc4ccccc42)c2ccccc2C(=O)N(Cc2ccccc2Cl)[C@H]3c2ccc(CO)cc2)cc1	glycogen synthase kinase-3 (GSK3A per assay name; protocol says GSK3B)	-1.01

Task: Answer with the recorded composite z-score for the compound listed here: `C=CCNC(=O)[C@H]1[C@@H]2C(=O)O[C@@H](c3ccccc3)[C@@H](c3ccccc3)N2[C@@H](c2ccc(O)cc2)[C@]12C(=O)N(C(=O)OCCOC)c1ccc(C#CCCO)cc12`
Output: 0.713

Task: Return composite z-score (reported value) for this compound: COc1cc(C(O)C2C=CC3C(=O)N(c4ccccc4)C(=O)C3N2Nc2ccc(C#N)cc2)cc(OC)c1OC (stereo unspecified)
Output: 1.33

Task: Determine its reported composite z-score: `COC(=O)[C@@]1(Cc2ccccc2)[C@H]2c3cc(C(=O)N(C)C)n(Cc4c(-c5ccccc5)noc4C)c3C[C@H]2CN1C(=O)c1ccccc1`
Output: 0.638

Task: Determine from records and report composite z-score for C#CCN(C(/C=C/c1ccccc1)CO)C(C(=O)O)c1ccccc1 (stereo unspecified)
Output: -0.953

Task: Tell me its composite z-score given COC(=O)c1ccc(OC)c(/C=C\CC(OC(C)=O)c2ccccc2)c1 (stereo unspecified) as the entry.
Output: 0.147

Task: Give me measured composite z-score, please, for this compound: `O=C1c2ccccc2[C@@]2(Cc3ccccc3N(Cc3ccccc3)C2=O)[C@H](c2ccc(CO)cc2)N1C1CCCCC1`
Output: 0.152

Task: Note down composite z-score recorded for `CO[C@H]1O[C@H](CO)[C@@H](OC(=O)Nc2ccc3c(c2)OCO3)[C@H](OC(=O)Nc2ccccc2)[C@H]1OC(=O)Nc1ccccc1`
Output: 1.29

Task: Give the reported value of composite z-score for this record: `Cc1ccc([C@H]2C(C(=O)O)=C[C@@H](C)N2S(=O)(=O)c2ccc(C)cc2)cc1`
Output: -0.107

Task: Return the recorded composite z-score value; entry: `O=C(CS)NCCCCCCNC(=O)[C@H]1C[C@H]2C(=O)N3CCC[C@H]3C(=O)N2[C@H]1c1cccc(OCCO)c1`
Output: 1.34
